- experimental-system: NAD-dependent protein deacetylase sirtuin-1 (Homo sapiens, UniProt Q96EB6)
- Sequence (Q96EB6 whole entry): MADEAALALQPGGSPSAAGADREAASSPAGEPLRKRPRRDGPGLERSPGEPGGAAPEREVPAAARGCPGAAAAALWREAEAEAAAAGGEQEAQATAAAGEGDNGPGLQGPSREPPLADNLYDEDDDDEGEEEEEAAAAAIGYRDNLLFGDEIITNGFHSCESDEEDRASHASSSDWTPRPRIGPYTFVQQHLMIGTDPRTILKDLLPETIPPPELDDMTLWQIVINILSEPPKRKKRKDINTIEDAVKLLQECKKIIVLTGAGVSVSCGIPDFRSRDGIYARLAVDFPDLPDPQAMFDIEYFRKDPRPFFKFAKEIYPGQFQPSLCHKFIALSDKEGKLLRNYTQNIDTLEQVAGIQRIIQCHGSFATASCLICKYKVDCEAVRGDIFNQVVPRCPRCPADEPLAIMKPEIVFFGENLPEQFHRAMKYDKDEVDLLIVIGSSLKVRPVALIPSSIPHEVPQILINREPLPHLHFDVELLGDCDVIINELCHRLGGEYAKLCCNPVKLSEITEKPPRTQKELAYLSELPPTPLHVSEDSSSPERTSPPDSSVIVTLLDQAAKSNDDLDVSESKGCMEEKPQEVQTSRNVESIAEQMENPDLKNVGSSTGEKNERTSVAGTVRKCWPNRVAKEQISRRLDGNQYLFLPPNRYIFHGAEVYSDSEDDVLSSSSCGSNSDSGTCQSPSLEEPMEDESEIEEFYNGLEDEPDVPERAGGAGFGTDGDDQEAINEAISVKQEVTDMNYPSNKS
- assay-method-text: Inhibition of recombinant SIRT1 preincubated for 5 mins before addition of substrate measured after 1 hr by fluorescence-based assay
Where a SMILES comes first, the peptide text is derived from it. [ ]: non-standard residue; d: D form. Lys(Thioacetyl) = CC(=S)NCCCC[C@H](N)C(=O)O
assay-readout: IC50 (nM)

CC(=S)NCCCC[C@H](NC(=O)[C@H](CC(=O)O)NC(=O)[C@@H](N)CO)C(=O)N[C@H](C(=O)N[C@@H](C)C(=O)O)[C@@H](C)O (H-SD[Lys(Thioacetyl)]TA-OH) = 8800
CC[C@H](C)[C@H](NC(=O)[C@@H](NC(=O)[C@H](CCCCNC(C)=S)NC(=O)[C@H](CCCCN)NC(=O)[C@@H](N)CO)[C@@H](C)O)C(=O)O (H-SK[Lys(Thioacetyl)]TI-OH) = 180

[a] CSCC[C@H](NC(=O)[C@H](CC(C)C)NC(=O)[C@H](CCCCNC(C)=S)NC(=O)[C@H](CCCCN)NC(=O)[C@@H](N)Cc1cnc[nH]1)C(=O)O (H-HK[Lys(Thioacetyl)]LM-OH)
[b] CSCC[C@H](NC(=O)[C@H](C)NC(=O)[C@H](CCCCNC(C)=S)NC(=O)[C@H](CCCCN)NC(=O)[C@@H](N)Cc1cnc[nH]1)C(=O)O (H-HK[Lys(Thioacetyl)]AM-OH)
[c] CC[C@H](C)[C@H](NC(=O)[C@H](C)NC(=O)[C@H](CCCCNC(C)=S)NC(=O)[C@H](CC(=O)O)NC(=O)[C@@H](N)CO)C(=O)O (H-SD[Lys(Thioacetyl)]AI-OH)
Exercise: hey, can you rank those compounds up there by IC50? biggest number first please The reply should contain the labels ordered as requested.
Key: c, a, b

====

- experimental-system: UniProt Q8IXJ6
- Sequence (Q8IXJ6 whole entry): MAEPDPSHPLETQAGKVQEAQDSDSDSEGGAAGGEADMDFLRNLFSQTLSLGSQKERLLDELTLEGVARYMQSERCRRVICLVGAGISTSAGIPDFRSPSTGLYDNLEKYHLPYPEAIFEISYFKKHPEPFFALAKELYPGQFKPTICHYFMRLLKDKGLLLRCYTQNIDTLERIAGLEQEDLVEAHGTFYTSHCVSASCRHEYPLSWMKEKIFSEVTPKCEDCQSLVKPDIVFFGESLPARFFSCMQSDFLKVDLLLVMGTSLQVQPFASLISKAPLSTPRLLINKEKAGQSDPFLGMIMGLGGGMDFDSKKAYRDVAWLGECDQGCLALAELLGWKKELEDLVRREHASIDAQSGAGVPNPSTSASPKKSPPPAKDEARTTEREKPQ
- assay-method-text: Inhibition of recombinant SIRT2 preincubated for 5 mins before addition of substrate measured after 3 hrs by fluorescence-based assay
pIC50: −log10 of the molar value. Where a SMILES comes first, the peptide text is derived from it. [ ]: non-standard residue; d: D form. Lys(Thioacetyl) = CC(=S)NCCCC[C@H](N)C(=O)O
assay-readout: pIC50

CSCC[C@H](NC(=O)[C@H](CC(C)C)NC(=O)[C@H](CCCCNC(C)=S)NC(=O)[C@H](C)NC(=O)[C@@H](N)Cc1cnc[nH]1)C(=O)O (H-HA[Lys(Thioacetyl)]LM-OH) = 4.78

[a] CC[C@H](C)[C@H](NC(=O)[C@@H](NC(=O)[C@H](CCCCNC(C)=S)NC(=O)[C@H](CCCCN)NC(=O)[C@@H](N)CO)[C@@H](C)O)C(=O)O (H-SK[Lys(Thioacetyl)]TI-OH)
[b] CSCC[C@H](NC(=O)[C@H](CC(C)C)NC(=O)[C@H](CCCCNC(C)=S)NC(=O)[C@@H](N)CCCCN)C(=O)O (H-K[Lys(Thioacetyl)]LM-OH)
Exercise: Larger number for pIC50: a , or b ? Mark your answer with the label of the selected entry.
Key: a
(a: 5.16, b: 4.30)

[P] CC[C@H](C)[C@H](NC(=O)[C@@H](NC(=O)[C@H](CCCCNC(C)=S)NC(=O)[C@H](CC(=O)O)NC(=O)[C@H](C)N)[C@@H](C)O)C(=O)O (H-AD[Lys(Thioacetyl)]TI-OH)
[Q] CSCC[C@H](NC(=O)[C@@H](NC(=O)[C@H](CCCCNC(C)=S)NC(=O)[C@H](CC(=O)O)NC(=O)[C@@H](N)CO)[C@@H](C)O)C(=O)O (H-SD[Lys(Thioacetyl)]TM-OH)
Exercise: Recorded pIC50 values differ for P and Q ; which one is higher? Your choice should be expressed through its label.
Key: Q
(Q: 4.97, P: 4.43)

====

- experimental-system: NAD-dependent protein deacetylase sirtuin-1 (Homo sapiens)
- assay-method-text: Inhibition of recombinant SIRT1 preincubated for 5 mins before addition of substrate measured after 1 hr by fluorescence-based assay
Where a SMILES comes first, the peptide text is derived from it. [ ]: non-standard residue; d: D form. Lys(Thioacetyl) = CC(=S)NCCCC[C@H](N)C(=O)O
assay-readout: IC50 (nM)

Example results:
CC(=S)NCCCC[C@H](NC(=O)[C@@H](N)CCCCN)C(=O)N[C@@H](CC(C)C)C(=O)O = 570
CSCC[C@H](NC(=O)[C@H](CC(C)C)NC(=O)[C@H](CCCCNC(C)=S)NC(=O)[C@H](CCCCN)NC(=O)[C@H](C)N)C(=O)O (H-AK[Lys(Thioacetyl)]LM-OH) = 380
CC[C@H](C)[C@H](NC(=O)[C@@H](NC(=O)[C@H](CCCCNC(C)=S)NC(=O)[C@H](CC(=O)O)NC(=O)[C@@H](N)CO)[C@@H](C)O)C(=O)O (H-SD[Lys(Thioacetyl)]TI-OH) = 5000

[I] CC[C@H](C)[C@H](NC(=O)[C@@H](NC(=O)[C@H](CCCCNC(C)=S)NC(=O)[C@H](CC(=O)O)NC(=O)[C@H](C)N)[C@@H](C)O)C(=O)O (H-AD[Lys(Thioacetyl)]TI-OH)
[II] CC[C@H](C)[C@H](NC(=O)[C@H](CC(C)C)NC(=O)[C@H](CCCCNC(C)=S)NC(=O)[C@H](CC(=O)O)NC(=O)[C@@H](N)CO)C(=O)O (H-SD[Lys(Thioacetyl)]LI-OH)
Exercise: Lab notebook, comparison: I versus II , higher IC50 goes to which? // respond with label for picked entry
Key: II
(II: 23200 nM, I: 3200 nM)

[a] CSCC[C@H](NC(=O)[C@@H](NC(=O)[C@H](CCCCNC(C)=S)NC(=O)[C@H](CC(=O)O)NC(=O)[C@@H](N)CO)[C@@H](C)O)C(=O)O (H-SD[Lys(Thioacetyl)]TM-OH)
[b] CC(=S)NCCCC[C@H](NC(=O)[C@H](CCCCN)NC(=O)[C@@H](N)Cc1cnc[nH]1)C(=O)N[C@@H](CC(C)C)C(=O)O (H-HK[Lys(Thioacetyl)]L-OH)
[c] CC[C@H](C)[C@H](NC(=O)[C@@H](NC(=O)[C@H](CCCCNC(C)=S)NC(=O)[C@H](C)NC(=O)[C@@H](N)CO)[C@@H](C)O)C(=O)O (H-SA[Lys(Thioacetyl)]TI-OH)
[d] CC(=S)NCCCC[C@H](NC(=O)[C@@H](N)CC(=O)O)C(=O)N[C@H](C(=O)O)[C@@H](C)O
Exercise: Rank order required: IC50, descending. Answer format: the labels, ordered as requested.
Key: d, a, b, c

[A] CSCC[C@H](NC(=O)[C@H](CC(C)C)NC(=O)[C@H](CCCCNC(C)=S)NC(=O)[C@H](C)NC(=O)[C@@H](N)Cc1cnc[nH]1)C(=O)O (H-HA[Lys(Thioacetyl)]LM-OH)
[B] CC[C@H](C)[C@H](NC(=O)[C@@H](NC(=O)[C@H](CCCCNC(C)=S)NC(=O)[C@H](CCCCN)NC(=O)[C@@H](N)Cc1cnc[nH]1)[C@@H](C)O)C(=O)O (H-HK[Lys(Thioacetyl)]TI-OH)
Exercise: I'd appreciate it if you could identify which of A and B has the greater IC50. # answer = label of selected item
Key: A
(A: 550 nM, B: 230 nM)

====

- experimental-system: NAD-dependent protein deacetylase sirtuin-2 (Homo sapiens)
- assay-method-text: Inhibition of recombinant SIRT2 preincubated for 5 mins before addition of substrate measured after 3 hrs by fluorescence-based assay
Where a SMILES comes first, the peptide text is derived from it. [ ]: non-standard residue; d: D form. Lys(Thioacetyl) = CC(=S)NCCCC[C@H](N)C(=O)O
assay-readout: IC50 (µM)

[P] CSCC[C@H](NC(=O)[C@H](C)NC(=O)[C@H](CCCCNC(C)=S)NC(=O)[C@H](CCCCN)NC(=O)[C@@H](N)Cc1cnc[nH]1)C(=O)O (H-HK[Lys(Thioacetyl)]AM-OH)
[Q] CC(=S)NCCCC[C@H](NC(=O)[C@H](CCCCN)NC(=O)[C@@H](N)Cc1cnc[nH]1)C(=O)N[C@@H](CC(C)C)C(=O)O (H-HK[Lys(Thioacetyl)]L-OH)
[R] CC(=S)NCCCC[C@H](NC(=O)[C@@H](N)CCCCN)C(=O)N[C@@H](CC(C)C)C(=O)O
[S] CC[C@H](C)[C@H](NC(=O)[C@H](C)NC(=O)[C@H](CCCCNC(C)=S)NC(=O)[C@H](CC(=O)O)NC(=O)[C@@H](N)CO)C(=O)O (H-SD[Lys(Thioacetyl)]AI-OH)
Exercise: Number of compounds to sort: 4. Sort criterion: IC50, ascending. Output spec: a listing of the labels in the requested order.
Key: P, Q, S, R
